# credit: paper PMC12257390

# system: PD-L1 (Homo sapiens)
# Construct: gene CD274
# Sequence (Q9NZQ7 19-290): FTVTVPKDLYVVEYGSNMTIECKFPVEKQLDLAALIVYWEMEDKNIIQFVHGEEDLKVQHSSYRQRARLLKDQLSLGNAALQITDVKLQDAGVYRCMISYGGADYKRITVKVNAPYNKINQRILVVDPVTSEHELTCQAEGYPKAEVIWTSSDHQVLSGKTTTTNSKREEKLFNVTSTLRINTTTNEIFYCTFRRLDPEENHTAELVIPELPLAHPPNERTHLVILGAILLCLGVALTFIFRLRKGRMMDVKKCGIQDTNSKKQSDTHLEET
# assay remarks: X-ray co-crystal structure ([…] Å), 1H NMR binding; IC50 from HTRF PD-1/PD-L1 disruption
assay endpoint: pIC50
One number for each entry, as −log10 of the molar value.

[ask] Give the observed pIC50 of Cc1c(C=Cc2cc(CNC(C)(CO)C(=O)O)ccc2C(F)(F)F)cccc1-c1ccc2c(c1)OCCO2 (stereo not shown) [MAX-10181] for PD-L1 (Homo sapiens).
[reply] 8.16
